Molecular target: UniProtKB P25025
Sequence (P25025 whole entry): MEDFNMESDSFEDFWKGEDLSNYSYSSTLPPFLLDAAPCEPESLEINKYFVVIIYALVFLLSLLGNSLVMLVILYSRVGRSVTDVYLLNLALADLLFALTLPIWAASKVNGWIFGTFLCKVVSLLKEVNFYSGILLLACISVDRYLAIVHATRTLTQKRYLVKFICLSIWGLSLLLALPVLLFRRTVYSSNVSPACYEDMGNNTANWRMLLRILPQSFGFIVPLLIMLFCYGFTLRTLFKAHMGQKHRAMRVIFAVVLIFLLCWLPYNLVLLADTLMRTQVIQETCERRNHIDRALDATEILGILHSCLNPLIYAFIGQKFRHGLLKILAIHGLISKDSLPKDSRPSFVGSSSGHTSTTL
Assay: human CXCR2 calcium flux activity (FLIPR, HEK293 cells stably expressing human CXCR2, IL-8 stimulation)
Conditions: HEK293 cells stably expressing human CXCR2, EC80 human IL-8; read-out: CXCR2 inhibitory activity, IC50
pIC50: −log10 of the molar value.
measured-metric: pIC50

>>> experimental_value("CC1([C@@H](Nc2c(Nc3ccnc(C(=O)N4CCOCC4)c3O)c(=O)c2=O)c2nc(F)ccc2F)CCCC1 [compound 060]")
6.41
>>> experimental_value("CN(C)C(=O)c1nccc(Nc2c(N[C@@H](c3cccc(CF)n3)C3(C)CCCC3)c(=O)c2=O)c1O [compound 108]")
6.13
>>> experimental_value("CN(C)C(=O)c1nccc(Nc2c(N[C@@H](c3ccc(F)cn3)C3(C)CCCC3)c(=O)c2=O)c1O [compound 005]")
5.90
>>> experimental_value("CN(C)C(=O)c1nccc(Nc2c(N[C@@H](c3nc(Cl)ccc3F)[C@@]3(C)CC(F)(F)CO3)c(=O)c2=O)c1O [068B]")
5.12
>>> experimental_value("CNC(=O)c1c(Cl)ccc(Nc2c(N[C@@H](c3ncccc3C)C3(C)CCCC3)c(=O)c2=O)c1O [compound 064]")
4.95
>>> experimental_value("CN(C)C(=O)c1nccc(Nc2c(N[C@@H](C#CC3CC3)C3(C)CCCC3)c(=O)c2=O)c1O [compound 115]")
6.28
